- subject.of.test: PDE5A1 (Homo sapiens, UniProt O76074)
- experiment.description: CoMSIA 3D-QSAR model prediction of PDE5A1 activity
- protocol.conditions: EA minus PA
experimental.endpoint: CoMSIA residual

Examples from the recorded data:
[
  {
    "compound": "COc1ccc(-c2oc3c(CC=C(C)C)c(O)cc(O)c3c(=O)c2O[C@@H]2O[C@@H](C)[C@H](O)[C@@H](O)[C@H]2O)cc1 [Compound 3, baohuoside I]",
    "CoMSIA residual": 0.013
  },
  {
    "compound": "COc1ccc(-c2oc3c(CC=C(C)C)c(O)cc(O)c3c(=O)c2O)cc1",
    "CoMSIA residual": 0.058
  },
  {
    "compound": "COc1ccc(-c2oc3c(CC=C(C)C)c(OC4OC(CO)C(O)C(O)C4O)cc(O)c3c(=O)c2OC2OC(C)C(O)C(O)C2OC2OC(C)C(O)C(O)C2O)cc1 (stereo not shown) [Compound 6, epimedin C]",
    "CoMSIA residual": 0.037
  }
]

P = COc1cccc(/C=C/C(=O)c2c3c(c(OC)c4c2OCO4)CN(C)CC3)c1
Q = COc1ccc(C(=O)/C=C\c2cc(OC)c(OC)cc2OC)c(OC)c1
Field: entry with larger CoMSIA residual (options P / Q ). Provide the label of your selected option as the answer.
Q

P = CCCOc1ccccc1-c1nc2n[nH]nc2c(=O)[nH]1
Q = COc1ccc(-c2oc3c(CC=C(C)C)c(OCCO)cc(O)c3c(=O)c2OC2OC(C)C(O)C(O)C2O)cc1 (stereo not shown)
Field: entry with larger CoMSIA residual (options P / Q ). Provide the label of your selected option as the answer.
P
(P: 0.001, Q: 0.000)
